Reference source: patent US20060069132A1

Listed below: Morningglory plant response rating values for each entry.
system: morningglory; assay: Test A pre-/postemergence herbicide test; type: in vivo, Ipomoea spp.; conditions: Preemergence, 500 g ai/ha; visual rating, 0 to 100 scale (0 no effect, 100 complete control)
Reported metric: Morningglory plant response rating

[
  {
    "Molecule": "Cn1nc(C(C)(C)C)cc1C(=O)Nc1cccc(C#N)c1 [Compound 121]",
    "Tgt": "morningglory",
    "Numeric readout": 5
  },
  {
    "Molecule": "CCNC(=O)c1cccc(NC(=O)c2cc(C(C)(C)C)nn2CCF)c1 [Compound 35]",
    "Tgt": "morningglory",
    "Numeric readout": 25
  },
  {
    "Molecule": "CCn1nc(C(C)(C)C)cc1C(=O)Nc1cccc(C(C)=O)c1 [Compound 122]",
    "Tgt": "morningglory",
    "Numeric readout": 25
  },
  {
    "Molecule": "CCn1nc(C(C)(C)C)cc1C(=O)Nc1cccc2c1CCN(C1CCCC1)C2=O [Compound 66]",
    "Tgt": "morningglory",
    "Numeric readout": 0
  }
]

* * *

system: ducksalad; assay: Test C flooded paddy test; assay type: in vivo, Heteranthera limosa; details: 62 g ai/ha, scale 0 to 100 (0 no effect, 100 complete control)
Reported metric: Ducksalad plant response rating

[
  {
    "Compound": "CCn1nc(C(C)(C)C)cc1C(=O)Nc1cc(C(=O)NCC2CC2)ccn1 [Compound 155]",
    "Numeric readout": 45
  },
  {
    "Compound": "CCNC(=O)c1ccc(F)c(NC(=O)c2cn(C(C)(C)C)nc2CC)c1 [Compound 193]",
    "Numeric readout": 55
  },
  {
    "Compound": "C#CCNC(=O)c1cccc(NC(=O)c2cc(C(C)(C)C)nn2CC)n1 [Compound 147]",
    "Numeric readout": 0
  },
  {
    "Compound": "CCc1nc(C(C)(C)C)sc1C(=O)Nc1cc(C(=O)N(C)C)ccc1F [Compound 225]",
    "Numeric readout": 10
  },
  {
    "Compound": "CCn1nc(C(C)(C)C)cc1C(=O)Nc1cccc(OCCCF)c1 [Compound 138]",
    "Numeric readout": 0
  },
  {
    "Compound": "CCNC(=O)c1cccc(NC(=O)c2cc(C(C)(C)C)nn2CC(F)(F)F)c1 [Compound 31]",
    "Numeric readout": 10
  },
  {
    "Compound": "CCn1nc(C(C)(C)C)cc1C(=O)Nc1cccc(C(C)=O)c1 [Compound 122]",
    "Numeric readout": 50
  },
  {
    "Compound": "CCn1nc(C(C)(C)C)cc1C(=O)Nc1cccc(C(=O)NCCF)c1 [Compound 45]",
    "Numeric readout": 0
  },
  {
    "Compound": "CON=C(C)c1cccc(NC(=O)c2cc(C(C)(C)C)nn2C)c1 [Compound 106]",
    "Numeric readout": 0
  },
  {
    "Compound": "CCn1nc(C(C)(C)C)cc1C(=O)Nc1cccc(C(=O)N(C)C)c1 [Compound 49]",
    "Numeric readout": 0
  }
]

* * *

Tested on: barnyardgrass
Assay: Test B pre-/postemergence herbicide test
Format: in vivo, Echinochloa crus-galli
Settings: 500 g ai/ha; visual rating 0-100, 0 no effect, 100 complete control; preemergence
Experimental: […] At the same time, plants selected from these crop and weed species and also blackgrass (Alopecurus myosuroides Huds.), wheat (Triticum aestivum L.) and wild oat (Avena fatua L.) were treated with postemergence applications of test chemicals formulated in the same manner. […] Treated plants and controls were maintained in a greenhouse for 13 to 15 days, after which time all species were compared to controls and visually evaluated. […]

[
  {
    "Compound": "CCCCOc1cccc(NC(=O)c2cc(C(C)(C)C)nn2CC)c1 [Compound 137]",
    "Plant response rating, Barnyardgrass": 70
  },
  {
    "Compound": "CC(=O)c1cccc(NC(=O)c2cc(C(C)(C)C)nn2CC(F)(F)F)c1 [Compound 126]",
    "Plant response rating, Barnyardgrass": 60
  },
  {
    "Compound": "CCN(CC)C(=O)c1cccc(NC(=O)c2sc(C(C)(C)C)nc2C)c1 [Compound 199]",
    "Plant response rating, Barnyardgrass": 90
  },
  {
    "Compound": "CCc1nc(C(C)(C)C)sc1C(=O)Nc1cccc(C(=O)N(CC)CC)c1 [Compound 205]",
    "Plant response rating, Barnyardgrass": 90
  }
]

* * *

system: ducksalad; test: Test C flooded paddy test; type: in vivo, Heteranthera limosa; details: 500 g ai/ha, visual rating after 12 to 14 days, scale 0 to 100 (0 no effect, 100 complete control)
Source text: […]
Measured Plant response rating, Ducksalad, listed per entry for reference.

[
  {
    "Compound": "CCNC(=O)c1cc(NC(=O)c2cc(C(C)(C)C)nn2CC)c(F)cc1F [Compound 252]",
    "Plant response rating, Ducksalad": 80
  },
  {
    "Compound": "CCn1nc(C(C)(C)C)cc1C(=O)Nc1ccc(OC)c(OC)c1 [Compound 298]",
    "Plant response rating, Ducksalad": 90
  },
  {
    "Compound": "CON=C(C)c1cccc(NC(=O)c2cc(C(C)(C)C)nn2C)c1 [Compound 106]",
    "Plant response rating, Ducksalad": 0
  },
  {
    "Compound": "CCn1nc(C2(C)CC2)cc1C(=O)Nc1cc(C(=O)N2CC=CC2)ccc1F [Compound 301]",
    "Plant response rating, Ducksalad": 95
  },
  {
    "Compound": "CCn1nc(C(C)(C)C)cc1C(=O)Nc1cccc(OS(=O)(=O)CC)c1 [Compound 408]",
    "Plant response rating, Ducksalad": 95
  }
]

* * *

tested on: lambsquarters; experiment: Test B pre-/postemergence herbicide test; format: in vivo, Chenopodium album; settings: postemergence, 500 g ai/ha; scale 0 to 100, 0 is no effect, 100 is complete control

[
  {
    "Smiles code": "CCNC(=O)c1ccc(F)c(NC(=O)c2cc(C3(C)CC3)nn2CC)c1",
    "Lambsquarters plant response rating": 80
  },
  {
    "Smiles code": "CCOC(=O)c1cccc(NC(=O)c2cc(C3(C)CC3)nn2CC)c1",
    "Lambsquarters plant response rating": 60
  },
  {
    "Smiles code": "CCn1nc(C(C)(C)C)cc1C(=O)Nc1cncc(C(=O)N2CC=CC2)n1",
    "Lambsquarters plant response rating": 20
  },
  {
    "Smiles code": "CCn1nc(C(C)(C)C)cc1C(=O)Nc1cncc(C(=O)N2CC=CC2)c1",
    "Lambsquarters plant response rating": 30
  },
  {
    "Smiles code": "CCN(CC)C(=O)c1cccc(NC(=O)c2cc(C(C)(C)C)nn2C)n1",
    "Lambsquarters plant response rating": 60
  },
  {
    "Smiles code": "CCNC(=O)c1cc(NC(=O)c2cc(C(C)(C)C)nn2CC)c(F)cc1F",
    "Lambsquarters plant response rating": 30
  },
  {
    "Smiles code": "CCNC(=O)c1cccc(NC(=O)c2nn(C(C)C)nc2CC)c1",
    "Lambsquarters plant response rating": 60
  }
]

* * *

system: barnyardgrass; assay: Test A pre-/postemergence herbicide test; assay type: in vivo, Echinochloa crus-galli; details: Preemergence, 500 g ai/ha; visual rating, 0 to 100 scale (0 no effect, 100 complete control)

[
  {
    "Smiles code": "CN1Cc2c(NC(=O)c3cc(C(C)(C)C)nn3C)cccc2C1=O",
    "Barnyardgrass plant response rating": 5
  },
  {
    "Smiles code": "CCn1nc(C(C)(C)C)cc1C(=O)Nc1cc(C(=O)NC(C)(C)C)ccn1",
    "Barnyardgrass plant response rating": 30
  },
  {
    "Smiles code": "CC(=NO)c1cccc(NC(=O)c2cc(C(C)(C)C)nn2C)c1",
    "Barnyardgrass plant response rating": 0
  },
  {
    "Smiles code": "CCn1nc(C(C)(C)C)cc1C(=O)Nc1cc(C(=O)OC(C)(C)C)ccc1F",
    "Barnyardgrass plant response rating": 0
  },
  {
    "Smiles code": "CCNC(=O)c1cccc(NC(=O)c2cc(C(C)(C)C)nn2CCF)c1",
    "Barnyardgrass plant response rating": 70
  }
]

* * *

system: blackgrass; experiment: Test B postemergence herbicide test; type: in vivo, Alopecurus myosuroides; settings: postemergence, 500 g ai/ha; visual rating, scale 0 (no effect) to 100 (complete control)
// reported Blackgrass plant response rating for each item listed
Reported metric: Blackgrass plant response rating

[
  {
    "Compound": "CCc1nn(C(C)(C)C)cc1C(=O)Nc1cccc(C(C)=O)c1 [Compound 187]",
    "Numeric readout": 0
  },
  {
    "Compound": "CCc1nc(C(C)(C)C)sc1C(=O)Nc1cccc(C(=O)NC(C)(C)C)n1 [Compound 216]",
    "Numeric readout": 0
  },
  {
    "Compound": "CC(C)(C)c1cc(C(=O)Nc2cccc(SC(F)(F)F)c2)n(CCF)n1 [Compound 132]",
    "Numeric readout": 40
  },
  {
    "Compound": "CCN(CC)C(=O)c1ccnc(NC(=O)c2cc(C(C)(C)C)nn2CC)c1 [Compound 153]",
    "Numeric readout": 10
  },
  {
    "Compound": "CCN(CC)C(=O)c1cccc(NC(=O)c2nn(C(C)(C)C)cc2Cl)c1 [Compound 218]",
    "Numeric readout": 0
  }
]
